All values here come from PubChem BioAssay AID463173.

Tested on: DeltatarO mutant
Test: S. aureus survival, RN4220 and DeltatarO strains – OD600, teichoic acid synthesis inhibitors, primary screen (AID 463173)
Conditions: S. aureus RN4220 wild type/DeltatarO growth, OD600, 18 h, hits give low values, screened at 18.75 µg/mL (by protocol)
About 4,300 (8.3%) of roughly 52,000 compounds were called active. The list comes from a sample in which actives are over-represented; it also holds close analogues and randomly drawn compounds.
measurementName: survival (%)
Express your answer in %, writing the number without its unit.

Cc1cc(F)ccc1NC(=O)Cn1cc(S(=O)(=O)NC(C)C)c(S(=O)(=O)NC(C)C)c1 yielded survival of 90

For record CC1Cc2cc(S(=O)(=O)CCC(=O)Nc3ccccc3F)ccc2N1C(=O)C1CC1 (stereo not given) the listed survival is 100

Record CNS(=O)(=O)c1cn(CC(=O)Nc2ccc(F)cc2F)cc1S(=O)(=O)NC . Reported survival: 0

CNS(=O)(=O)c1cn(CC(=O)Nc2ccc(C)cc2C)cc1S(=O)(=O)NC has a reported survival of 117

The compound identified as CCCCN(C)CCCNC(=O)C1CCN(S(=O)(=O)CC)CC1 registered its survival at 108

* * *

System: DeltatarO mutant
Experiment: S. aureus survival, RN4220 and DeltatarO strains – OD600, teichoic acid synthesis inhibitors, primary screen (AID 463173)
Settings: S. aureus RN4220 wild type/DeltatarO growth, OD600, 18 h, screened at 18.75 µg/mL (by protocol)
Among all 52,000 compounds or so, about 4,300 (8.3%) were called active. No stated cut-off is given here; in the data, active means survival mostly below about 52% (no sharp cut-off); inactive means mostly above about 56%. What follows is part of a selection rich in actives, with near analogues and random picks from the rest.
Returns: one label drawn from true (1) for active, false (0) for inactive

INPUT: Per the records of this test, what outcome belongs to O=C(NCC(c1cccnc1)N1CCc2ccccc2C1)C(=O)Nc1ccccc1 (stereo not given) ?
OUTPUT: false (0)

INPUT: Could you kindly confirm the outcome this assay logged for CCOc1ccc(CNC(=O)Cn2cc3c(n2)-c2c(oc(C(=O)N4CCOCC4)c2C)CC3)cc1 ?
OUTPUT: false (0)

INPUT: Lab log entry: COc1ccc(NC(=O)CN2CCN(Cc3ccccc3Cl)S2(=O)=O)cc1Cl — outcome as called in the assay?
OUTPUT: false (0)

INPUT: Assay outcome for CCOc1ccc(C(=O)Nc2ccc(NC(=O)c3ccccc3)cc2)cc1Br : what was it?
OUTPUT: false (0)

INPUT: Kindly provide the recorded test outcome for the following compound: CCc1ccc(CSc2nc(-c3ccc(OC)cc3)nc3c2Cc2c(CO)cnc(C)c2O3)cc1
OUTPUT: false (0)

INPUT: Given CCOC(=O)Cn1c(=O)n(CC2CCCO2)c2nc(-c3ccccc3)nc(C(N)=O)c21 (stereo not given) , state the outcome it received in this test.
OUTPUT: false (0)

INPUT: Assay outcome for Oc1ccc(NCc2ccccc2OCc2ccc(Cl)cc2)cc1 : what was it?
OUTPUT: false (0)

INPUT: Tell me the assay call for COc1cc(NC(=O)c2cc(-c3ccc(Cl)c(Cl)c3)on2)cc(OC)c1OC please.
OUTPUT: false (0)

INPUT: Hello, I am checking results. What call was entered for CCn1cc(S(=O)(=O)c2ccc(OC)cc2)c(=O)c2cc(F)c(N3CCC(C)CC3)cc21 ?
OUTPUT: false (0)

INPUT: For COc1ccccc1Cc1nc2ccccc2nc1SCC(=O)NCc1ccccc1Cl , which call appears in the assay record?
OUTPUT: false (0)

INPUT: Could you check what this test reported for O=C(NC1CCCCC1)c1ccc(Cn2c(SCc3ccccc3)nc3cccnc32)cc1 ?
OUTPUT: false (0)

INPUT: For Cc1cccc(C(c2sc3nc(-c4ccco4)nn3c2O)N2CCN(Cc3ccccc3)CC2)c1 (stereo not given) , what call appears in the results of this test?
OUTPUT: false (0)

INPUT: Entry CCn1nc(C)c(CCN(C)C(=O)Nc2cc(OC)c(OC)c(OC)c2)c1C : call = ?
OUTPUT: false (0)

INPUT: Hey, what did the test say about Oc1ccc(NCc2ccc(OCc3ccccc3)cc2)cc1 ?
OUTPUT: false (0)

INPUT: Which outcome did this test record for the compound Cc1ccc(CNc2ncnc3c2nnn3C)cc1 ?
OUTPUT: false (0)

INPUT: Kindly provide the recorded test outcome for the following compound: COc1ccc(Cn2ccc3nc(C)c(C(=O)N4CCN(c5cccc(OC)c5)CC4)cc3c2=O)cc1
OUTPUT: false (0)

INPUT: Outcome logged for O=C(NC1CCCCC1)c1ccc(CSc2nc3cccnc3n2Cc2ccccc2F)cc1 in this assay:
OUTPUT: false (0)

INPUT: Hello, I am checking results. What call was entered for Oc1ccc(NCc2ccc(OCc3ccccc3Cl)cc2)cc1 ?
OUTPUT: true (1)

INPUT: // return assay outcome for Cc1ccccc1CSc1nc2cc(C(=O)NC3CCCC3)ccc2c(=O)n1Cc1ccccc1
OUTPUT: false (0)

INPUT: Each compound tested received a call. Report the one for CCOC(=O)Cn1c(=O)n(CC2CCCO2)c2nc(-c3ccc(OCC)cc3)nc(C(N)=O)c21 (stereo not given) .
OUTPUT: true (1)

INPUT: Short answer needed: outcome of this test for O=C(NC1CCCCC1)c1ccc(CSc2nc3cccnc3n2Cc2ccccc2)cc1 ?
OUTPUT: false (0)

INPUT: Per the records of this test, what outcome belongs to O=C(NC1CCCC1)c1ccc2c(=O)n(Cc3ccccc3)c(SCc3ccccc3)nc2c1 ?
OUTPUT: false (0)

INPUT: Recorded test call requested for CCOc1ccc(C(=O)Nc2cccc(NC(=O)c3ccc(C(C)(C)C)cc3)c2)cc1Br
OUTPUT: false (0)

INPUT: Query: recorded result category for O=C(NC1CCCCC1)c1ccc(Cn2c(SCc3ccccc3F)nc3cccnc32)cc1 in this test
OUTPUT: false (0)

INPUT: // param item: CCOC(=O)Cn1c(=O)n(-c2ccccc2OC)c2nc(-c3ccccc3)nc(C(N)=O)c21 ; yields the recorded call
OUTPUT: true (1)

INPUT: GET /call?item= Cc1ccc(-n2c(SCC(=O)Nc3ccc4c(c3)OCO4)nc3c([nH]c4ccccc43)c2=O)cc1 returns the recorded outcome of this test.
OUTPUT: false (0)

INPUT: Name the outcome recorded for O=C(NC1CCCCC1)c1ccc(CSc2nc3cccnc3n2Cc2ccc(F)cc2)cc1 in the assay.
OUTPUT: true (1)

INPUT: Check the results log: what was the call for CCOC(=O)Cn1c(=O)n(CC2CCCO2)c2nc(-c3cccc(C)c3)nc(C(N)=O)c21 (stereo not given) ?
OUTPUT: false (0)

INPUT: What was the test verdict on Oc1ccc(NCc2ccccc2OCc2ccccc2Cl)cc1 ?
OUTPUT: true (1)

INPUT: Any idea what this test logged for COc1ccccc1-c1cc(C(=O)Nc2cc(Cl)ccc2O)no1 ?
OUTPUT: false (0)

INPUT: Given CCOc1cccc(CNc2ccc(O)cc2)c1OCc1ccccc1Cl , state the outcome it received in this test.
OUTPUT: false (0)

INPUT: How was O=C(NCCSc1c(-c2ccc(Cl)cc2)[nH]c2ccccc12)c1ccc(S(=O)(=O)N2CCOCC2)cc1 classified in this test?
OUTPUT: false (0)

INPUT: Name the outcome recorded for CCOC(=O)Cn1c(=O)n(-c2ccccc2OC)c2nc(-c3cccc(F)c3)nc(C(N)=O)c21 in the assay.
OUTPUT: false (0)

INPUT: What classification did O=C(NC1CC1)c1ccc(Cn2c(SCc3ccc(F)cc3)nc3cccnc32)cc1 end up with in this test?
OUTPUT: false (0)

INPUT: Hey, what did the test say about COc1ccccc1NC(=O)Cn1c(=O)n(Cc2ccccc2)c(=O)c2ccccc21 ?
OUTPUT: false (0)

INPUT: Per the records of this test, what outcome belongs to CCOc1ccc(CNC(=O)C2CCCN(c3nn4cc(-c5ccc(OC)cc5)nc4s3)C2)cc1 (stereo not given) ?
OUTPUT: false (0)

INPUT: Outcome? COc1ccccc1CCNC(=O)C(=O)NCC(c1cccs1)S(=O)(=O)c1ccccc1 (stereo not given)
OUTPUT: false (0)

INPUT: Answer briefly: the call reported for O=C(NC1CCCC1)c1ccc(CSc2nc3cccnc3n2Cc2ccc(F)cc2)cc1 in this assay.
OUTPUT: false (0)

INPUT: In this assay, the call recorded for COc1ccc(C)cc1NC(=O)C(=O)NCCc1csc2nc(-c3ccccc3F)nn12 was what?
OUTPUT: false (0)

INPUT: Identify the outcome logged in this assay for the compound shown: O=C(NC1CCCCC1)c1ccc(Cn2c(SCc3ccc(F)cc3)nc3cccnc32)cc1
OUTPUT: true (1)

* * *

Tested on: DeltatarO mutant
Test: S. aureus survival, RN4220 and DeltatarO strains – OD600, teichoic acid synthesis inhibitors, primary screen (AID 463173)
Conditions: S. aureus RN4220 wild type/DeltatarO growth, OD600, 18 h, hits give low values, screened at 18.75 µg/mL (by protocol)
Among all 52,000 compounds or so, about 4,300 (8.3%) were called active. The full list was thinned out, with actives kept by preference.
Rule: survival below 80% gives met, anything at or above gives not met.

INPUT: Does the reported survival of the following molecule sit strictly below 80%? Cc1ccc(N2CC(NC(=O)CCc3ccccc3)CC2=O)cc1C (stereo not given)
OUTPUT: not met

INPUT: Please determine if CCOC(=O)c1oc2ccc(S(=O)(=O)n3nc(-c4cc(OC)cc(OC)c4)cc3N)cc2c1C is below 80% in terms of survival.
OUTPUT: not met

INPUT: Is survival strictly under 80% for the entry O=C(Cc1csc2nc(-c3ccccc3)cn12)NCc1ccc(F)cc1 ?
OUTPUT: not met

INPUT: Does the reported survival of CN(C(=S)SCC1=CCS(=O)(=O)C1)C1CCS(=O)(=O)C1 (stereo not given) stay below 80%?
OUTPUT: not met

INPUT: Is it true that survival reported for CCc1ccc2[nH]c3nc(SCC(=O)OC(C)C)nnc3c2c1 is less than 80%?
OUTPUT: not met

INPUT: For COC(=O)c1ccccc1NC(=O)[C@H]1O[C@@H]2OC(C)(C)O[C@@H]2[C@H]2OC(C)(C)O[C@H]21 , is the recorded survival below the cut-off of 80%?
OUTPUT: not met

INPUT: Identify whether the molecule O=C(Nc1cccc(F)c1)C1CCN(c2nc3ccccc3nc2C(F)(F)F)CC1 records survival below 80%.
OUTPUT: not met

INPUT: In the record for COC(=O)CN(c1ccccc1Cl)S(C)(=O)=O , is survival less than 80%?
OUTPUT: met

INPUT: Field: below-cutoff. Rule: recorded survival strictly less than 80%. Subject: COc1ccc(CCNC(=O)CN(c2ccccc2)S(=O)(=O)N(C)C)cc1OC
OUTPUT: met

INPUT: Take the molecule Cc1ccc(-c2nc3cc(C(C)C)ccc3o2)cc1NC(=O)c1cc([N+](=O)[O-])ccc1N1CCOCC1 and say whether its survival is less than 80%.
OUTPUT: met
